Recorded values, source PubChem BioAssay.

Entries and their potentiation, less the hit threshold
# experimental_target: Potassium voltage-gated channel subfamily KQT member 2 (Rattus norvegicus) (UniProt O88943)
# Sequence (O88943 whole entry, looked up): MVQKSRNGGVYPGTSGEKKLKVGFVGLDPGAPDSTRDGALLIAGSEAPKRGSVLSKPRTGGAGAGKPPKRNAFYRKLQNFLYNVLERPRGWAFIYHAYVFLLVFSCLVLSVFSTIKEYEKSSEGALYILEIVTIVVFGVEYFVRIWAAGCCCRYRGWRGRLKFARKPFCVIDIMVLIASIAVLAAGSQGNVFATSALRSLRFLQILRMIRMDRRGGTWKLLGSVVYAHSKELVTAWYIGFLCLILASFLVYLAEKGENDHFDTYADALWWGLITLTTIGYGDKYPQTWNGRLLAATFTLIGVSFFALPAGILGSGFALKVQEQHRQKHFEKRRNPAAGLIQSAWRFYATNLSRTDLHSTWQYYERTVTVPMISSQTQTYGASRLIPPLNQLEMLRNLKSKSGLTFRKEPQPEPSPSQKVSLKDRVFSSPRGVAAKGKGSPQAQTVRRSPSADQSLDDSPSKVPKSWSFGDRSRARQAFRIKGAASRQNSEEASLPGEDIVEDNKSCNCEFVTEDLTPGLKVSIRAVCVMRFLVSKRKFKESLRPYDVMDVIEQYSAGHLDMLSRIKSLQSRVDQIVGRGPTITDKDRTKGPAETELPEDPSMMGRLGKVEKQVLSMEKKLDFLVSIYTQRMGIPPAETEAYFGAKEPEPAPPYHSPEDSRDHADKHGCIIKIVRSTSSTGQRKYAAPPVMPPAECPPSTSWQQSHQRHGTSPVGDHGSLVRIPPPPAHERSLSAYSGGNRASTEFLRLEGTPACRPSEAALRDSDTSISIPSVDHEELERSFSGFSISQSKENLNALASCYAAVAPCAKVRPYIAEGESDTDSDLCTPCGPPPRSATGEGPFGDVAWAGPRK
# assay_protocol: KCNQ2 potassium channel activity enhancers – cell-based, CHO, FluxOR thallium flux, duplicate, confirmation (AID 2287);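 note: peak minus minimum thallium fluorescence divided by baseline after K/Tl stimulus; 0% = vehicle mean plus 3 SD and 100% = vehicle minus unstimulated blank difference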
# condition_summary: CHO-KCNQ2 cells, FluxOR thallium flux fluorescence; at 10 µM; active compounds read high
Some of the results follow. Activity calls are given as the source filed them.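 Rule for the calls: active = fluorescence ratio rising 3 SD or more over the vehicle control mean in both replicates, plus primary screen hit; inactive = the rest.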

Give a short answer stating reported potentiation, less the hit threshold for CCc1ccc(NC(=O)C(=O)NNC(=O)c2cccs2)cc1 .
26.8% (active)

Give a short answer stating reported potentiation, less the hit threshold for CCn1c2ccccc2c2cc(NC(=O)CNC)ccc21 .
1.9% (active)

====

# experimental_target: Short transient receptor potential channel 4 (Mus musculus) (UniProt Q9QUQ5)
# Sequence (Q9QUQ5 whole entry, looked up): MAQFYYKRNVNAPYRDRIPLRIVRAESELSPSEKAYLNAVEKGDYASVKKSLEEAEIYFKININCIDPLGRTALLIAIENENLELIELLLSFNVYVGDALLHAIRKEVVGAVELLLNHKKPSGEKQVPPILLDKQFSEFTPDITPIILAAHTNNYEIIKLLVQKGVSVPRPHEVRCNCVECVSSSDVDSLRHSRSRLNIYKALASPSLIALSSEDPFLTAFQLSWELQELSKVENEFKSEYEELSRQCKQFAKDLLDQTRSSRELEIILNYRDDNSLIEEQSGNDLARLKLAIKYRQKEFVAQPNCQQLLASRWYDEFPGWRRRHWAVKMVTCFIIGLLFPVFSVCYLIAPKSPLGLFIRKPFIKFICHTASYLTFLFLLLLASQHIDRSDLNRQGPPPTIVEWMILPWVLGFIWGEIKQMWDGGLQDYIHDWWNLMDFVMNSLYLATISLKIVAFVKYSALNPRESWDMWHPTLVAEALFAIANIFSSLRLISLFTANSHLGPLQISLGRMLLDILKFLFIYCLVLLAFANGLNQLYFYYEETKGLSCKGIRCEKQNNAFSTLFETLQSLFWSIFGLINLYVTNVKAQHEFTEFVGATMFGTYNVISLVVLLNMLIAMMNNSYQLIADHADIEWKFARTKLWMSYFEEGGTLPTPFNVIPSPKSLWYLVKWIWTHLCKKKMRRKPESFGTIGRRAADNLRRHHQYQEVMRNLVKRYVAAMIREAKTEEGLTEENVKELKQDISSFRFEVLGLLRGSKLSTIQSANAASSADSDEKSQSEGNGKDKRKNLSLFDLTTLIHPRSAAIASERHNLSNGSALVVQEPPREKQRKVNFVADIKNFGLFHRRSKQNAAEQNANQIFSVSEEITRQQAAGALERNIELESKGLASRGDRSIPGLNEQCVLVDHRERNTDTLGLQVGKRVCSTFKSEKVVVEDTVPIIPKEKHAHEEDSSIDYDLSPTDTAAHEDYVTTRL
# assay_protocol: blockers of DAMGO-evoked TRPC4 calcium flux – cell-based, Fluo4, HEK293 TRPC4beta/mu-opioid, confirmation (AID 2636)
# condition_summary: at 10 µM
Activity calls are given as the source filed them.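 The calls were made as follows: active = calcium signal cut by more than 3 SD below the full-agonist control yet still positive, in both repeats and the earlier primary screen; inactive = the rest.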
Please reply with one of these outcomes: 1.0 = active, 0.0 = inactive

Example cases with answers are listed next.
| compound | answer_label |
| --- | --- |
| CC(=O)Nc1nc2ccc(S(=O)(=O)N3CCCCC3)cc2s1 | 0.0 |
| COc1ccc(OCC(=O)NC2CCCN(Cc3ccc(Cl)cc3)C2)cc1 (stereo unspecified) | 0.0 |
| COc1ccccc1NC(=O)CSc1n[nH]c(-c2ccccn2)n1 | 0.0 |
| Nc1c2c(nc3ccccc13)N(c1ccccc1)CC2 | 1.0 |
| Cc1cccc(NC(=S)NCC(c2ccccc2)N(C)C)c1 (stereo unspecified) | 0.0 |
| Cc1nn(-c2ccccc2)c(Cl)c1CN(C(=O)CCl)c1ccc(Cl)cc1 | 1.0 |
| CC(=NCCN1CCN(C(C)=C2C(=O)c3ccccc3C2=O)CC1)C1=C(O)CC(C)(C)CC1=O | 0.0 |
| COc1ccc(CCn2c(=S)[nH]c3cc(C(=O)N4CCOCC4)ccc3c2=O)cc1OC | 0.0 |

Given N=c1c(C(=O)NCC2CCCO2)cc2c(=O)n3ccccc3nc2n1Cc1ccccc1Cl (stereo unspecified) , state the outcome it received in this test.
0.0

Given Cc1ccc(C(=O)C[n+]2cccc3cc(C)ccc32)cc1 , state the outcome it received in this test.
0.0

Given CC(=O)N(c1ccc(Cl)cc1)c1c[nH]c2ccccc12 , state the outcome it received in this test.
1.0

====

# System: TRPC4 beta (transient receptor potential cation channel C4), mouse
# assay_protocol: TRPC4 cation channel opening, retest – cell-based, Fluo4 calcium, HEK293 TRPC4beta/mu-opioid, duplicates, 10 µM, confirmation (AID 2426);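 for activation: percent rise of integrated ratio over buffer wells lacking compound which define 0%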
# condition_summary: Fluo4 calcium fluorescence, at 10 µM; active compounds read high
Calls of active or inactive are those of the source.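 How the source made its calls: active means fluorescence ratio normalized to control raised more than 50% in primary screen plus both repeat runs; inactive means the rest.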
metric: activation

Example entries begin here.
| compound | activation |
| --- | --- |
| CN(C)C(CNC(=O)c1ccc2nc[nH]c2c1)c1ccccc1 (stereo not given) | 145% (active) |
| Cc1cc(CSC(=N)N)c(CSC(=N)N)cc1C | 178% (active) |
| COC(=O)C1=C(CCc2ccccc2)NC(=O)NC1c1ccc(Cl)cc1 (stereo not given) | inactive |
| O=[N+]([O-])c1ccccc1CN1CCN(S(=O)(=O)c2ccccc2)CC1 | inactive |
| c1ccc(-c2nc(NCc3ccco3)c3ccccc3n2)nc1 | inactive |
| CCCCN1/C(=C/c2ccc3ccccc3[n+]2CC)Sc2ccccc21 | 412% (active) |
| Cc1ccccc1-c1n[nH]c(=S)n1Cc1ccccc1 | inactive |
| Cc1nc(N2CCN(c3ccccn3)CC2)c2c(C)c(C(=O)N3CCN(c4ccccc4F)CC3)sc2n1 | inactive |

Give a short answer stating reported activation for OC1(c2ccc(F)cc2)CCN(Cc2ccccc2)C1 (stereo not given) .
inactive

Give a short answer stating reported activation for N=c1c2c(n(Cc3ccc(Cl)cc3)c3c1CCC3)CCC2 .
inactive

Give a short answer stating reported activation for O=C(O)CCNc1nc(-c2ccccc2)c2cc(Br)ccc2n1 .
inactive

Give a short answer stating reported activation for Cc1noc(C)c1S(=O)(=O)N1CCC(C(=O)NCCCN2CC(C)CC(C)C2)CC1 (stereo not given) .
99% (active)
